Target: Nav 1.7 (Homo sapiens (Human))
Test: Inhibition of sodium channels, Red Membrane Potential Dye FLIPR assay, veratridine depolarization
Format: cell-based
Conditions: HEK-293 cells overexpressing the channel; read-out: Nav1.7 IC50
pIC50: −log10 of the molar value.
Assign class 1 to entries whose pIC50 meets or exceeds 7; assign class 0 to the rest.

Compound: CCCc1cc(C(F)(F)F)ccc1C1CCOc2cc(S(=O)(=O)Nc3cccnn3)ccc21 (stereo not shown) [Example-242]
Target system: Nav 1.7 (Homo sapiens (Human))
Assigned category: class 0
//
Compound: O=S(=O)(Nc1cccc(F)n1)c1ccc2c(c1)OCC[C@@H]2c1ccc(C(F)(F)F)cc1Cl (racemic)
Target system: Nav 1.7 (Homo sapiens (Human))
Assigned category: class 1
//
Compound: Cc1nc(-c2cc(C(F)(F)F)ccc2[C@H]2CCOc3cc(S(=O)(=O)Nc4cccnn4)ccc32)ccc1F (racemic)
Target system: Nav 1.7 (Homo sapiens (Human))
Assigned category: class 1
//
Compound: COCCc1cc(C(F)(F)F)ccc1[C@H]1CCOc2cc(S(=O)(=O)Nc3ncc(F)cn3)ccc21 (racemic)
Target system: Nav 1.7 (Homo sapiens (Human))
Assigned category: class 0
//
Compound: O=S(=O)(Nc1cccc(F)n1)c1ccc2c(c1)OCC[C@@H]2c1ccc(C(F)(F)F)cc1-c1nccs1 (racemic)
Target system: Nav 1.7 (Homo sapiens (Human))
Assigned category: class 1
//
Compound: O=S(=O)(Nc1cccnn1)c1ccc2c(c1)OCC[C@@H]2c1ccc(C(F)(F)F)cc1CCC(F)F (racemic)
Target system: Nav 1.7 (Homo sapiens (Human))
Assigned category: class 1
//
Compound: Cc1ccc(-c2cc(C(F)(F)F)ccc2[C@H]2CCOc3cc(S(=O)(=O)Nc4cccnn4)ccc32)cn1 (stereo in doubt)
Target system: Nav 1.7 (Homo sapiens (Human))
Assigned category: class 1

---

Molecular target: Nav 1.5 (Homo sapiens (Human), UniProt Q14524)
Sequence (Q14524 whole entry): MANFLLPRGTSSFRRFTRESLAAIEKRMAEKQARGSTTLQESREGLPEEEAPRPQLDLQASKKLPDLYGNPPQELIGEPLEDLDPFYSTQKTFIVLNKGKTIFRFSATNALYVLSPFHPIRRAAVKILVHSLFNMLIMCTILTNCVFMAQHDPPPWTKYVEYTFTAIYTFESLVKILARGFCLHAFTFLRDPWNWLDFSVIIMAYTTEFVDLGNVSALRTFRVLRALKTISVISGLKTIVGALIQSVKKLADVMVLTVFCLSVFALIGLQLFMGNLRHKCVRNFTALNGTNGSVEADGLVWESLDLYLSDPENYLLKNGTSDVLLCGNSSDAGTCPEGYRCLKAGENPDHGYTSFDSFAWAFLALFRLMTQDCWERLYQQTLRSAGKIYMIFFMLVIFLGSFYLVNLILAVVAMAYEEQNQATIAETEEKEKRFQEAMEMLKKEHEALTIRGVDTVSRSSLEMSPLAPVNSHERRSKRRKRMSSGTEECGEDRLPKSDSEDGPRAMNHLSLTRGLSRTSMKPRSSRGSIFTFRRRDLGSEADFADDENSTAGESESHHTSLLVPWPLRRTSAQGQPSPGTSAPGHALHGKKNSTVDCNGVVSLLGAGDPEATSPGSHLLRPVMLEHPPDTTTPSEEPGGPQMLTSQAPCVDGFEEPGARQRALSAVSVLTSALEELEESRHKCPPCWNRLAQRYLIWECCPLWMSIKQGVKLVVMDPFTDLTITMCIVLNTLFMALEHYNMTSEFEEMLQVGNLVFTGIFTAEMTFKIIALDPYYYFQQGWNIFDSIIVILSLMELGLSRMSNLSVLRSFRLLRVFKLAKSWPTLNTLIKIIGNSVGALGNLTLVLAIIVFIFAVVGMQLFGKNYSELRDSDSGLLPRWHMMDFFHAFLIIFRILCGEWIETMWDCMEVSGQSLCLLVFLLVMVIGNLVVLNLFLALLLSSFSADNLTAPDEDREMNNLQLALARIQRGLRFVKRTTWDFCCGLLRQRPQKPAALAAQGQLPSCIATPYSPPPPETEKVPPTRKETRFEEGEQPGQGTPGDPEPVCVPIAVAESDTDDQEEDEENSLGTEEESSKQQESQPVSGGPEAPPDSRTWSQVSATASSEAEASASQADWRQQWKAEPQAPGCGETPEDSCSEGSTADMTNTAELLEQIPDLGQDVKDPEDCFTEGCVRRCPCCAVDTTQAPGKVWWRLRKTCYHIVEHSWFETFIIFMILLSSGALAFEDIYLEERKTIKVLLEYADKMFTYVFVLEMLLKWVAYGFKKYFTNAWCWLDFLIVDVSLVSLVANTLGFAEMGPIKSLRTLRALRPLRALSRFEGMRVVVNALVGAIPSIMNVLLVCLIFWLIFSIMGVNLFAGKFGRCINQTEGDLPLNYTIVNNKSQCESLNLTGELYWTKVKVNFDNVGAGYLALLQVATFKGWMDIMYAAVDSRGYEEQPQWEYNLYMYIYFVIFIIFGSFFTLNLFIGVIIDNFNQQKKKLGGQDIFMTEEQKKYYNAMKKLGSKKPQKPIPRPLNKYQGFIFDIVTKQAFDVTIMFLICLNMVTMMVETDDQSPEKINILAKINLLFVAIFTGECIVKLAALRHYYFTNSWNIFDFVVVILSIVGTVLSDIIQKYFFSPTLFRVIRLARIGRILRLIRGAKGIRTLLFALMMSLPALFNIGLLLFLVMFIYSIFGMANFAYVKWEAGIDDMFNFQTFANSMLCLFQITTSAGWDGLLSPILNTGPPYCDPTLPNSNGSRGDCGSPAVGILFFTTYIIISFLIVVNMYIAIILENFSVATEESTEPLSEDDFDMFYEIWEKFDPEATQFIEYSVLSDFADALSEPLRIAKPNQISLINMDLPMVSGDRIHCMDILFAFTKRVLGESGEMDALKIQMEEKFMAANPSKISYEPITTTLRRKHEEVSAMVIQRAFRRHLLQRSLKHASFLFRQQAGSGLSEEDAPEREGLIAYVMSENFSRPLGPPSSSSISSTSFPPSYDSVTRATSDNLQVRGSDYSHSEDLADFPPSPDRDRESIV
Test: Inhibition of sodium channels, Red Membrane Potential Dye FLIPR assay, veratridine depolarization
Type: cell-based
Conditions: HEK-293 cells overexpressing the channel; read-out: Nav1.5 IC50 (bound given in μM)

Compound: O=S(=O)(Nc1cccc(F)n1)c1ccc2c(c1)OCCC2c1ccc(C(F)(F)F)cc1O[C@H]1CCOC1 (some centres unmarked)
IC50: > 10 µM
//
Compound: O=S(=O)(Nc1ncc(F)cn1)c1ccc2c(c1)OCC[C@H]2c1ccc(C(F)(F)F)cc1-n1ccnn1
IC50: > 10 µM
//
Compound: O=C(O)c1ccc(-c2cc(C(F)(F)F)ccc2[C@@H]2CCOc3cc(S(=O)(=O)Nc4ncc(F)cn4)ccc32)cc1
IC50: > 10 µM
//
Compound: O=S(=O)(Nc1ncccn1)c1ccc2c(c1)OCC[C@H]2c1ccc(C(F)(F)F)cc1-n1ccnn1
IC50: > 10 µM
//
Compound: Cc1nc(-c2cc(C(F)(F)F)ccc2[C@H]2CCOc3cc(S(=O)(=O)Nc4ncccn4)ccc32)cs1
IC50: > 10 µM
//
Compound: Cn1nccc1-c1cc(C(F)(F)F)ccc1[C@@H]1CCOc2cc(S(=O)(=O)Nc3cc(F)ccn3)ccc21
IC50: > 10 µM
//
Compound: COCCCc1cc(C(F)(F)F)ccc1[C@H]1CCOc2cc(S(=O)(=O)Nc3ncc(F)cn3)ccc21 (racemic)
IC50: > 10 µM
//
Compound: COCCCOc1cc(C(F)(F)F)ccc1[C@H]1CCOc2cc(S(=O)(=O)Nc3ncc(F)cn3)ccc21 (racemic)
IC50: > 10 µM
//
Compound: O=S(=O)(Nc1ncc(F)cn1)c1ccc2c(c1)OCC[C@@H]2c1ccc(C(F)(F)F)cc1-c1ccc(F)cc1
IC50: > 10 µM
//
Compound: O=S(=O)(Nc1cccnn1)c1ccc2c(c1)OCC[C@H]2c1ccc(C(F)(F)F)cc1-c1ccc(F)nc1
IC50: > 10 µM
//
Compound: O=C1CCCN1c1cc(C(F)(F)F)ccc1[C@H]1CCOc2cc(S(=O)(=O)Nc3ncc(F)cn3)ccc21
IC50: > 10 µM
//
Compound: Cn1nccc1-c1cc(C(F)(F)F)ccc1[C@H]1CCOc2cc(S(=O)(=O)Nc3ncccc3F)ccc21
IC50: > 10 µM
//
Compound: O=S(=O)(Nc1ncc(F)cn1)c1ccc2c(c1)OCC[C@H]2c1ccc(C(F)(F)F)cc1-c1ccc(F)cc1
IC50: > 10 µM
//
Compound: COCCCOc1cc(C(F)(F)F)ccc1[C@@H]1CCOc2cc(S(=O)(=O)Nc3ncccn3)ccc21
IC50: > 10 µM

---

Target: Nav 1.7 (Homo sapiens (Human), UniProt Q15858)
Sequence (Q15858 whole entry): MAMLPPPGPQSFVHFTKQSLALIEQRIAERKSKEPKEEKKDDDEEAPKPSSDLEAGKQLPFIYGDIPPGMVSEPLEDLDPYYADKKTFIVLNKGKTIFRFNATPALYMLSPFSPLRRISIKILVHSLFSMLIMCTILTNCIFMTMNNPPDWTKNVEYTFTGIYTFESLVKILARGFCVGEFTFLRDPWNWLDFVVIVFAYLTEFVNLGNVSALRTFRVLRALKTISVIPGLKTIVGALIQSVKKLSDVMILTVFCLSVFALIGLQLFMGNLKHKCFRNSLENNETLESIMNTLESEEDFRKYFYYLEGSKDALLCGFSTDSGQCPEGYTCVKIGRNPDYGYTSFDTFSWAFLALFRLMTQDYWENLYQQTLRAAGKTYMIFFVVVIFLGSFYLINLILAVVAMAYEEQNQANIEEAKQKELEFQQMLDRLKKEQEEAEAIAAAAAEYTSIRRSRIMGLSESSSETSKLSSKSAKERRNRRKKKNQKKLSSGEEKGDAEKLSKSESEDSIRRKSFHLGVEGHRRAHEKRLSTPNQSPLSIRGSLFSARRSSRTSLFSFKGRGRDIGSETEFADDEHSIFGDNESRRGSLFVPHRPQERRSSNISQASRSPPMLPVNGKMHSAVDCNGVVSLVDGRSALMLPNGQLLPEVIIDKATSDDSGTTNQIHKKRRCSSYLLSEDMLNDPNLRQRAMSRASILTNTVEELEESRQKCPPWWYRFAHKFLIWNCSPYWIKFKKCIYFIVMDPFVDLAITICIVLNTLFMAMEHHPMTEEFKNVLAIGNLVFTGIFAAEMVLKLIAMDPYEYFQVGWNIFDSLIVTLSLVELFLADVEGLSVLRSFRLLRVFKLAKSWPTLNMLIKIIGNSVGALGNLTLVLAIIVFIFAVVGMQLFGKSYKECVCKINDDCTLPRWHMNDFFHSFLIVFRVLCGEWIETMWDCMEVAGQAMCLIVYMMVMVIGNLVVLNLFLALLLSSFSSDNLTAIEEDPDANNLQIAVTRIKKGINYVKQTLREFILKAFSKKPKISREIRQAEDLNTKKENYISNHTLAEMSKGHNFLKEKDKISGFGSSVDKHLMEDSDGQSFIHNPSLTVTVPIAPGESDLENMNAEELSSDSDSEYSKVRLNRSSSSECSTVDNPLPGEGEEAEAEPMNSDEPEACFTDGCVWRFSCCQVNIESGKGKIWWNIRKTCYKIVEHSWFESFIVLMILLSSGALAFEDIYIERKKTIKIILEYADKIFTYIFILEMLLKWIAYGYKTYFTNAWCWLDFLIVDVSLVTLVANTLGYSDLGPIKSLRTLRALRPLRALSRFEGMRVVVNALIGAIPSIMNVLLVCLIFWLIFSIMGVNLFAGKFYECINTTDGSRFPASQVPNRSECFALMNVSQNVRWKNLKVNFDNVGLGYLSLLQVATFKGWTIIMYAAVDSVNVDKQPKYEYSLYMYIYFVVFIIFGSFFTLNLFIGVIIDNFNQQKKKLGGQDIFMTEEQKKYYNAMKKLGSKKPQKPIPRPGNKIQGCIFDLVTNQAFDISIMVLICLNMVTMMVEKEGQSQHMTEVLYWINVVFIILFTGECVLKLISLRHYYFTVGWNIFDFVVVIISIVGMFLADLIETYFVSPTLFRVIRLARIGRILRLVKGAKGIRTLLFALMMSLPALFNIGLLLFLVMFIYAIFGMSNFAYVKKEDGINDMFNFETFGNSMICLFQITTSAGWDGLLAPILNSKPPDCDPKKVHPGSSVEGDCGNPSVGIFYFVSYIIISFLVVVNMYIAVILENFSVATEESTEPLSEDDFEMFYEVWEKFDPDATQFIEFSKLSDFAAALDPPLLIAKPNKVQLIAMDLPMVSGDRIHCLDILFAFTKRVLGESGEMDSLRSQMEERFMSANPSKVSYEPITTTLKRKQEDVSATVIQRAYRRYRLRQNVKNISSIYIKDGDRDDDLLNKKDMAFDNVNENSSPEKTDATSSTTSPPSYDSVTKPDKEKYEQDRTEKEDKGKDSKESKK
Assay: Inhibition of sodium channels, Red Membrane Potential Dye FLIPR assay, veratridine depolarization
Assay type: cell-based
Conditions: HEK-293 cells overexpressing the channel; read-out: Nav1.7 IC50
Each item that follows carries a reported IC50.

Compound: O=S(=O)(Nc1cccnn1)c1ccc2c(c1)OCC[C@@H]2c1ccc(C(F)(F)F)cc1OC1CCOCC1 [Example-175]
IC50 (nM): 248
--
Compound: COCCOc1cc(C(F)(F)F)ccc1[C@@H]1CCOc2cc(S(=O)(=O)Nc3ncccn3)ccc21 [Example 124]
IC50 (nM): 2230
--
Compound: Cc1nc(-c2cc(C(F)(F)F)ccc2[C@H]2CCOc3cc(S(=O)(=O)Nc4ncc(F)cn4)ccc32)ccc1F (racemic) [Example-223]
IC50 (nM): 82
--
Compound: O=S(=O)(Nc1cccc(F)n1)c1ccc2c(c1)OCCC2c1ccc(C(F)(F)F)cc1O[C@H]1CCOC1 (stereo partly shown) [Example-180]
IC50 (nM): 831

---

Biological target: Nav 1.7 (Homo sapiens (Human), UniProt Q15858)
Test: Inhibition of sodium channels, Red Membrane Potential Dye FLIPR assay, veratridine depolarization
Type: cell-based
Conditions: HEK-293 cells overexpressing the channel; read-out: Nav1.7 IC50
Below, each of the compounds is paired with its reported log10 of IC50 value.
Endpoint label: log10 of IC50 (log10 of the value in nM)

Compound: O=S1(=O)CCN(c2cc(C(F)(F)F)ccc2[C@H]2CCOc3cc(S(=O)(=O)Nc4cccnn4)ccc32)CC1 (racemic)
Obs value: 2.05
--
Compound: O=S(=O)(Nc1ncccn1)c1ccc2c(c1)OCCC2c1ccc(C(F)(F)F)cc1O[C@@H]1CCOC1 (some centres unmarked) [Example-185]
Obs value: 3.01
--
Compound: COc1cc(C(F)(F)F)ccc1[C@H]1CCOc2cc(S(=O)(=O)Nc3ncccn3)ccc21
Obs value: 2.25
--
Compound: O=S(=O)(Nc1ncc(F)cn1)c1ccc2c(c1)OCC[C@@H]2c1ccc(C(F)(F)F)cc1O[C@H]1CCOC1 (racemic)
Obs value: 1.74
--
Compound: COCCCCc1cc(C(F)(F)F)ccc1[C@H]1CCOc2cc(S(=O)(=O)Nc3ncccn3)ccc21
Obs value: 2.30
--
Compound: Cc1nc(-c2cc(C(F)(F)F)ccc2[C@H]2CCOc3cc(S(=O)(=O)Nc4cccc(F)n4)ccc32)ccc1F (racemic)
Obs value: 1.08
--
Compound: Cc1nc(-c2cc(C(F)(F)F)ccc2[C@H]2CCOc3cc(S(=O)(=O)Nc4ccncn4)ccc32)cs1
Obs value: -0.05
--
Compound: Cc1nc(-c2cc(C(F)(F)F)ccc2[C@@H]2CCOc3cc(S(=O)(=O)Nc4ccncn4)ccc32)cs1
Obs value: 1.48
--
Compound: O=C1CCCN1c1cc(C(F)(F)F)ccc1[C@@H]1CCOc2cc(S(=O)(=O)Nc3cccc(F)n3)ccc21
Obs value: 2.91
--
Compound: COCCOc1cc(C(F)(F)F)ccc1[C@H]1CCOc2cc(S(=O)(=O)Nc3cccnn3)ccc21 (racemic)
Obs value: 2.16
--
Compound: O=S(=O)(Nc1cccc(F)n1)c1ccc2c(c1)OCC[C@@H]2c1ccc(C(F)(F)F)cc1OC1COC1 (racemic)
Obs value: 1.53
--
Compound: CS(=O)(=O)CCc1cc(C(F)(F)F)ccc1[C@H]1CCOc2cc(S(=O)(=O)Nc3ccncn3)ccc21
Obs value: 2.80
--
Compound: O=S(=O)(Nc1ncccn1)c1ccc2c(c1)OCC[C@@H]2c1ccc(C(F)(F)F)cc1CCC(F)F (racemic)
Obs value: 0.85
--
Compound: O=S(=O)(Nc1cccnn1)c1ccc2c(c1)OCC[C@H]2c1ccc(C(F)(F)F)cc1OC1CCOCC1
Obs value: 3.39

---

# Lookup of reported pIC50 keyed by entry
Target: Nav 1.7 (Homo sapiens (Human))
Assay: Inhibition of sodium channels, Red Membrane Potential Dye FLIPR assay, veratridine depolarization
Assay type: cell-based
Conditions: HEK-293 cells overexpressing the channel; read-out: Nav1.7 IC50
pIC50: −log10 of the molar value.

Compound: CCCc1cc(C(F)(F)F)ccc1[C@@H]1CCOc2cc(S(=O)(=O)Nc3cccc(F)n3)ccc21
pIC50: 6.32
--
Compound: O=S(=O)(Nc1cccc(F)n1)c1ccc2c(c1)OCCC2c1ccc(C(F)(F)F)cc1O[C@H]1CCOC1 (stereo partly shown) [Example-181]
pIC50: 9.05
--
Compound: CCCc1cc(C(F)(F)F)ccc1[C@H]1CCOc2cc(S(=O)(=O)Nc3ncc(F)cn3)ccc21
pIC50: 6.76
--
Compound: O=C(O)c1ccc(-c2cc(C(F)(F)F)ccc2[C@@H]2CCOc3cc(S(=O)(=O)Nc4ncccn4)ccc32)cc1
pIC50: 5.59
--
Compound: O=S(=O)(Nc1cccc(F)n1)c1ccc2c(c1)OCC[C@@H]2c1ccc(C(F)(F)F)cc1CCCCF (racemic)
pIC50: 7.24
--
Compound: COCCc1cc(C(F)(F)F)ccc1[C@H]1CCOc2cc(S(=O)(=O)Nc3ncccn3)ccc21 (racemic)
pIC50: 6.15
--
Compound: O=S(=O)(Nc1ncccn1)c1ccc2c(c1)OCC[C@@H]2c1ccc(C(F)(F)F)cc1CCF (racemic)
pIC50: 7.41
